Answer each item with its documented MIC.
Tested on: Enterococcus faecium
EXPERIMENT DESCRIPTION: Antibacterial activity against vancomycin, ampicillin and ciprofloxacin resistant Enterococcus faecium clinical isolate 1 assessed as inhibition of bacterial growth incubated for 20 to 24 hrs by microbroth serial dilution method
Assay type: functional
ASSAY SETUP: time 20-24 hrs, read-out: MIC100
Value expressed in µg/mL; do not type the unit.

// C=C[C@]1(C)C[C@@H](OC(=O)CSC(C)(C)CNC(=O)[C@H](N)C(C)C)[C@]2(C)[C@H](C)CC[C@]3(CCC(=O)[C@H]32)[C@@H](C)[C@@H]1O [VALNEMULIN] : MIC value = 0.015

// C=C[C@]1(C)C[C@@H](OC(=O)CS[C@@H]2C[C@H]3CC[C@@H](C2)N3C)[C@]2(C)[C@H](C)CC[C@]3(CCC(=O)[C@H]32)[C@@H](C)[C@@H]1O [RETAPAMULIN] : MIC value = 0.03

// `C=C[C@]1(C)C[C@@H](OC(=O)Cn2cc(-c3cccc(NC(=O)c4ccc(OC)cc4)c3)nn2)[C@]2(C)[C@H](C)CC[C@]3(CCC(=O)[C@H]32)[C@@H](C)[C@@H]1O` : MIC value = 0.12
